tested on: HEK-293T; test: Multiplex assay against HEK293T; format: toxicity, cell-based; details: human, 48 h, 10 µM, compound concentration 10 uM, replicate 1
Measurement type: Population Apoptotic (%)
Please respond with the number in % and leave the unit unwritten.

{"columns": ["Compound", "System name", "Unit name", "Population Apoptotic (%)"],
 "data": [
  ["C[C@@H]1C[C@H]2[C@@H]3CCC4=CC(=O)C=C[C@]4(C)[C@@]3(F)[C@@H](O)C[C@]2(C)[C@@]1(O)C(=O)CO", "HEK-293T", "%", 25]
]}

Okay, now this compound:
# query: Population Apoptotic (%) of entry Cc1nc2ccc(Oc3ccc(F)cc3)cc2c(=O)n1C[C@H]1CCCN(C(C)C)C1.Cl 47
